# inhibition at 10 µM per record follows
Tested System: human 5-HT7b receptor (Homo sapiens)
Construct: expressed in transfected cells
Sequence (P34969 1-432): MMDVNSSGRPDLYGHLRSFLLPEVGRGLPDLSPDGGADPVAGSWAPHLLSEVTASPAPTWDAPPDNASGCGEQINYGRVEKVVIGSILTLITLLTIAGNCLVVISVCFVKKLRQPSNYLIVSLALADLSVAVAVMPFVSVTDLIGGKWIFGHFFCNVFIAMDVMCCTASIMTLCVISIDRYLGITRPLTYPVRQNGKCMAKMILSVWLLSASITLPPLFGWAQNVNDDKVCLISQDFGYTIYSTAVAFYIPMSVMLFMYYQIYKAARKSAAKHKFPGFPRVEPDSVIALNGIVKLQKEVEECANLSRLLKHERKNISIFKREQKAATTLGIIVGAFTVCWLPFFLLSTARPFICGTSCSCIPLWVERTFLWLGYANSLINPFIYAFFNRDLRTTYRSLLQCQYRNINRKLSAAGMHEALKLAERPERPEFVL
Protocol: GPCR radioligand binding assay, [3H]-5-CT displacement, HEK293 membranes
Test Conditions: 5-HT7; replicate exp_2; read-out: %inh 5-HT7 exp_2
Measurement Name: inhibition at 10 µM (%)

[
  {
    "Compound": "CC(=O)c1sc(-c2ccc(O)cc2)nc1C [E1]",
    "Result Unit": "%",
    "Measured Number": 50
  },
  {
    "Compound": "O=C1NC(=O)/C(=C\\c2cccs2)N1",
    "Result Unit": "%",
    "Measured Number": 1.68
  },
  {
    "Compound": "Cc1cc2ccccc2nc1N",
    "Result Unit": "%",
    "Measured Number": -3.75
  },
  {
    "Compound": "O=C(O)C1CCN(c2ncccn2)CC1",
    "Result Unit": "%",
    "Measured Number": -21
  },
  {
    "Compound": "c1ccc(Nc2nncs2)cc1",
    "Result Unit": "%",
    "Measured Number": -21
  },
  {
    "Compound": "Cn1c(N)nc2ccccc21",
    "Result Unit": "%",
    "Measured Number": -18
  },
  {
    "Compound": "Nc1nnc2ccccn12",
    "Result Unit": "%",
    "Measured Number": 4.43
  },
  {
    "Compound": "O=C(O)c1cnc(-c2ccccc2)s1",
    "Result Unit": "%",
    "Measured Number": -31
  },
  {
    "Compound": "CS(=O)(=O)Nc1ccc(C(=O)O)cc1",
    "Result Unit": "%",
    "Measured Number": 13
  }
]

====

Tested System: human 5-HT1A receptor (Homo sapiens, UniProt P08908)
Construct: expressed in transfected cells
Sequence (P08908 whole entry): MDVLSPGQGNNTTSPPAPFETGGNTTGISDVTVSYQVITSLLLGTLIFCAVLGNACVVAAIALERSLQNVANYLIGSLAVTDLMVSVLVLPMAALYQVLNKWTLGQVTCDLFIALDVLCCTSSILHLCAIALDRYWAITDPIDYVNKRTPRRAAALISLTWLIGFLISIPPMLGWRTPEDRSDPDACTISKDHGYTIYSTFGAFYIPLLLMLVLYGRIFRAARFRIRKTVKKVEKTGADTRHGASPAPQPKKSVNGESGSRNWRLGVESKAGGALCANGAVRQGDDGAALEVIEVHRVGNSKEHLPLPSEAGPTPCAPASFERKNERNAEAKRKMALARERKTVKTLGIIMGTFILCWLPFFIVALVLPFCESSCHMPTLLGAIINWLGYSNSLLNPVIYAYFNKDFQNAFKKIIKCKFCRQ
Protocol: GPCR radioligand binding assay, [3H]-8-OH-DPAT displacement, HEK293 membranes
Test Conditions: 5-HT1A; replicate exp_2
Below, each entry is listed alongside its reported %inh 5-HT1A exp_2.
Measurement Name: %inh 5-HT1A exp_2 (%)

[
  {
    "Smiles Entry": "O=C1CSC(Nc2ccc(F)cc2)=N1",
    "Measured Number": 15
  },
  {
    "Smiles Entry": "N#Cc1ccc(C(=O)N2CCOCC2)cc1",
    "Measured Number": -23
  },
  {
    "Smiles Entry": "CCn1cnc2ccccc21",
    "Measured Number": 0
  },
  {
    "Smiles Entry": "Nc1ccc(-c2ccccc2)cc1C(=O)O",
    "Measured Number": 18
  },
  {
    "Smiles Entry": "Oc1ccc(C2CCNCC2)cc1",
    "Measured Number": 8
  },
  {
    "Smiles Entry": "O=C(O)c1cccc(Nc2ncccn2)c1",
    "Measured Number": 11
  },
  {
    "Smiles Entry": "NCC1(c2ccccc2)CCOCC1",
    "Measured Number": 12
  },
  {
    "Smiles Entry": "O=C(Nc1ccccc1)C1CC1",
    "Measured Number": 14
  },
  {
    "Smiles Entry": "Cc1ccc(-c2ccc(O)cc2)cc1",
    "Measured Number": -14
  },
  {
    "Smiles Entry": "C1=C[C@H]2O[C@@H]1c1ccccc12",
    "Measured Number": -11
  },
  {
    "Smiles Entry": "Cc1cnc(C(F)(F)F)cn1",
    "Measured Number": 9
  },
  {
    "Smiles Entry": "c1cnc2c(c1)NCCC2",
    "Measured Number": 9
  },
  {
    "Smiles Entry": "c1ccc(-c2ccncc2)cc1",
    "Measured Number": 0
  },
  {
    "Smiles Entry": "O=C1CCCc2occc21",
    "Measured Number": 0
  }
]

====

As shown below, each of these molecules has a reported V0 / Vi value.
Tested System: bovine factor Xa (Bos taurus, UniProt P00743)
Construct: bovine factor Xa, Chromogenix, 2 nkat/mL; purchased Chromogenix
Sequence (P00743 234-492 limits assumed): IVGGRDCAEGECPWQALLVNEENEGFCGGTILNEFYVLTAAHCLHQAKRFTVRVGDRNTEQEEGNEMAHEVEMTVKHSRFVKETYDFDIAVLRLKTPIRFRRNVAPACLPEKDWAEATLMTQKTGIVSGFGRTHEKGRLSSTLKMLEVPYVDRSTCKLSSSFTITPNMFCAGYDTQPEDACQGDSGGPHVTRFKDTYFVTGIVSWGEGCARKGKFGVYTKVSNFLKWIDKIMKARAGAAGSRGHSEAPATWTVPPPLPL
Sequence (P00743 41-180 partner limits assumed): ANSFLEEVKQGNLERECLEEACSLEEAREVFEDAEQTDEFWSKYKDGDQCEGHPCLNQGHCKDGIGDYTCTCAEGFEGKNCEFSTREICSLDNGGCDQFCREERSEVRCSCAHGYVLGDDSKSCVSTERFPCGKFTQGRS
Protocol: Protease inhibitory assay, chromogenic substrate S-2222
Type: biochemical
Test Conditions: FactorXa primary screening; substrate 100 µM; cmpd conc 200 µM
Measurement Name: V0 / Vi

[
  {
    "Molecule": "O=C(O)c1cnc(-c2ccccc2)s1",
    "Measurement Name": "V0 / Vi",
    "Measured Number": 1.02
  },
  {
    "Molecule": "c1cnc2c(c1)NCCC2",
    "Measurement Name": "V0 / Vi",
    "Measured Number": 0.98
  },
  {
    "Molecule": "C1=C[C@H]2O[C@@H]1c1ccccc12",
    "Measurement Name": "V0 / Vi",
    "Measured Number": 0.94
  },
  {
    "Molecule": "Cc1ccc(CCNc2ccccc2)cn1",
    "Measurement Name": "V0 / Vi",
    "Measured Number": 0.99
  },
  {
    "Molecule": "NC(c1ccccc1)c1ccccc1",
    "Measurement Name": "V0 / Vi",
    "Measured Number": 0.95
  },
  {
    "Molecule": "Cc1nccn1Cc1cccc(C#N)c1",
    "Measurement Name": "V0 / Vi",
    "Measured Number": 0.98
  },
  {
    "Molecule": "N#CC1CCS(=O)(=O)C1 (stereo not shown)",
    "Measurement Name": "V0 / Vi",
    "Measured Number": 0.97
  },
  {
    "Molecule": "CC(CN)N1CCc2sccc2C1 (stereo not shown)",
    "Measurement Name": "V0 / Vi",
    "Measured Number": 0.97
  },
  {
    "Molecule": "O=C1CC(CSc2ccc(Cl)cc2)=NN1",
    "Measurement Name": "V0 / Vi",
    "Measured Number": 0.99
  },
  {
    "Molecule": "O=C(CN1CCCC1)c1ccccc1Cl",
    "Measurement Name": "V0 / Vi",
    "Measured Number": 1.00
  },
  {
    "Molecule": "Cc1cc(-c2ccccc2)n[nH]1",
    "Measurement Name": "V0 / Vi",
    "Measured Number": 0.98
  },
  {
    "Molecule": "O=C1CNCCN1c1ccccc1",
    "Measurement Name": "V0 / Vi",
    "Measured Number": 1.00
  },
  {
    "Molecule": "CN(C)c1cc(CN)ccn1",
    "Measurement Name": "V0 / Vi",
    "Measured Number": 0.93
  },
  {
    "Molecule": "c1ccc2sc(N3CCNCC3)nc2c1",
    "Measurement Name": "V0 / Vi",
    "Measured Number": 1.01
  },
  {
    "Molecule": "Cc1nc(-c2ccccc2)cs1",
    "Measurement Name": "V0 / Vi",
    "Measured Number": 0.98
  },
  {
    "Molecule": "O=C1NC2(CCCC2)Nc2ccccc21",
    "Measurement Name": "V0 / Vi",
    "Measured Number": 0.98
  },
  {
    "Molecule": "Oc1ccccc1N1CCCCC1",
    "Measurement Name": "V0 / Vi",
    "Measured Number": 1.24
  },
  {
    "Molecule": "CCc1ccc(NC2=NCCCS2)cc1 [SX-D2]",
    "Measurement Name": "V0 / Vi",
    "Measured Number": 1.02
  },
  {
    "Molecule": "NC1CCc2ccccc21 (stereo not shown)",
    "Measurement Name": "V0 / Vi",
    "Measured Number": 0.93
  },
  {
    "Molecule": "Fc1ccc(CC2CCCNC2)cc1 (stereo not shown)",
    "Measurement Name": "V0 / Vi",
    "Measured Number": 0.94
  },
  {
    "Molecule": "CC1CCc2sc(C(=O)O)cc2C1 (stereo not shown)",
    "Measurement Name": "V0 / Vi",
    "Measured Number": 1.04
  },
  {
    "Molecule": "N#Cc1ccc2ncsc2c1",
    "Measurement Name": "V0 / Vi",
    "Measured Number": 1.17
  },
  {
    "Molecule": "Nc1nnc2ccccn12",
    "Measurement Name": "V0 / Vi",
    "Measured Number": 0.96
  },
  {
    "Molecule": "Cc1cc(N)no1",
    "Measurement Name": "V0 / Vi",
    "Measured Number": 0.97
  },
  {
    "Molecule": "CCCN1C(=O)CC(=O)NC1=S",
    "Measurement Name": "V0 / Vi",
    "Measured Number": 1.06
  },
  {
    "Molecule": "c1ccc2oc(C3CCCNC3)nc2c1 (stereo not shown)",
    "Measurement Name": "V0 / Vi",
    "Measured Number": 0.95
  },
  {
    "Molecule": "c1cnc2cccnc2c1",
    "Measurement Name": "V0 / Vi",
    "Measured Number": 1.03
  },
  {
    "Molecule": "FC1(F)CNCC(F)(F)O1",
    "Measurement Name": "V0 / Vi",
    "Measured Number": 0.94
  },
  {
    "Molecule": "COc1ccccc1N1CCNCC1",
    "Measurement Name": "V0 / Vi",
    "Measured Number": 0.98
  },
  {
    "Molecule": "O=C1CCC(=O)N(c2ccccc2)N1",
    "Measurement Name": "V0 / Vi",
    "Measured Number": 0.97
  },
  {
    "Molecule": "O=C1CCCc2occc21",
    "Measurement Name": "V0 / Vi",
    "Measured Number": 1.01
  },
  {
    "Molecule": "Brc1ccc(-c2ccon2)cc1",
    "Measurement Name": "V0 / Vi",
    "Measured Number": 0.98
  },
  {
    "Molecule": "O=c1ccc2c([nH]1)CCCC2",
    "Measurement Name": "V0 / Vi",
    "Measured Number": 1.05
  },
  {
    "Molecule": "CC(=O)c1ccc2c(c1)CCCN2",
    "Measurement Name": "V0 / Vi",
    "Measured Number": 1.02
  },
  {
    "Molecule": "O=C(Nc1ccccc1)C1CC1",
    "Measurement Name": "V0 / Vi",
    "Measured Number": 0.98
  },
  {
    "Molecule": "c1ccc(Nc2nncs2)cc1",
    "Measurement Name": "V0 / Vi",
    "Measured Number": 1.17
  },
  {
    "Molecule": "COc1ccc(CN2CCNCC2)cc1F",
    "Measurement Name": "V0 / Vi",
    "Measured Number": 0.84
  },
  {
    "Molecule": "COc1ccccc1CC1CCNCC1.Cl",
    "Measurement Name": "V0 / Vi",
    "Measured Number": 1.35
  },
  {
    "Molecule": "Cc1ccc(C)n1Cc1ccccc1Cl",
    "Measurement Name": "V0 / Vi",
    "Measured Number": 0.98
  },
  {
    "Molecule": "Cc1cnc(C(F)(F)F)cn1",
    "Measurement Name": "V0 / Vi",
    "Measured Number": 0.98
  },
  {
    "Molecule": "CC1(C)OC(=O)c2cc(Br)c(O)cc2O1",
    "Measurement Name": "V0 / Vi",
    "Measured Number": 1.03
  },
  {
    "Molecule": "Cc1cc(C)c2c(=O)[nH]n(C)c2n1",
    "Measurement Name": "V0 / Vi",
    "Measured Number": 1.09
  },
  {
    "Molecule": "c1ccc(-c2ccncc2)cc1",
    "Measurement Name": "V0 / Vi",
    "Measured Number": 1.01
  },
  {
    "Molecule": "Cn1nc(C(F)(F)F)cc1O",
    "Measurement Name": "V0 / Vi",
    "Measured Number": 1.13
  },
  {
    "Molecule": "O=C1NC(=O)C2(CCc3ccccc32)N1 (stereo not shown)",
    "Measurement Name": "V0 / Vi",
    "Measured Number": 0.98
  },
  {
    "Molecule": "COc1ccccc1C1CCNCC1",
    "Measurement Name": "V0 / Vi",
    "Measured Number": 0.86
  }
]
